Value source: paper PMC9728343

- Subject of test: CYP125A13 (Streptomyces peucetius, UniProt Q70AR4)
- Construct: gene cyp0266
- Sequence (Q70AR4 1-413): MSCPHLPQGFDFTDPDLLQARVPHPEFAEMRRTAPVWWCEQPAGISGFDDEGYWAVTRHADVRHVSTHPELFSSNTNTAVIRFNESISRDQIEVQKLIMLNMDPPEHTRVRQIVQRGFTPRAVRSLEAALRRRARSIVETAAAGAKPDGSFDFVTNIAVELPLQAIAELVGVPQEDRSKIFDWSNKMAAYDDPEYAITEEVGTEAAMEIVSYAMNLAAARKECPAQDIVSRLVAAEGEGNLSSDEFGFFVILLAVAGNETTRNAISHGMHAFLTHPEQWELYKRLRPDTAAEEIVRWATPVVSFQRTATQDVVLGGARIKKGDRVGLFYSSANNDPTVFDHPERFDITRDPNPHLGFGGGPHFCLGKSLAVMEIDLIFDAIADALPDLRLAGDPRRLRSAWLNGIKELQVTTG
- Experiment summary: UV-Vis spectral titration (type I shift), tight-binding quadratic fit; also turnover to 27-hydroxycholesterol with PDX/PDR (Km […])
Property: pKd
Keep it numeric: pKd is minus log10 of the concentration in mol/L.

Ask: Returns the measured pKd for the input compound. Input: CC(C)CCC[C@@H](C)[C@H]1CC[C@H]2[C@@H]3CC=C4C[C@@H](O)CC[C@]4(C)[C@H]3CC[C@]12C
Result: 4.24

###

- Subject of test: CYP125A13 (Streptomyces peucetius, UniProt Q70AR4)
- Construct: gene cyp0266
- Experiment summary: UV-Vis spectral titration (type I shift), tight-binding quadratic fit; no product formation detected
Property: Kd (µM)
Numeric answer only, unit µM assumed.

Ask: Which Kd is reported for this compound? CC(C)CCC[C@@H](C)[C@H]1CC[C@H]2[C@@H]3CCC4=CC(=O)CC[C@]4(C)[C@H]3CC[C@]12C [4-cholesten-3-one]
Result: 59.2
